- Test system: HCC-2998 colon
- runDescription: NCI-60 one-dose screen, 48 h (100 = growth as untreated, 0 = no growth, -100 = all killed)
- settings: 10 µM
This is part of a sample that, as a whole, favours compounds with a hit. Of some 83,000 tested, about 20% had one in any assay.
Class rule met: growth at least 50%. Class rule not met: growth below 50%.

Known results for compounds:
COc1cc2oc(-c3cccc(C(=O)Nc4ccc(Cl)cc4)c3)cc(=O)c2c(OCCN)c1OC : rule not met
COc1ccc(Cc2nn(CC(=O)N/N=C/c3ccc(Br)cc3)c(=O)c3c(C)noc23)cc1 : rule met
COC(=O)CNC(=O)COc1c(OC)c(OC)cc2oc(-c3cccc(C(=O)Nc4ccc(Cl)cc4)c3)cc(=O)c12 : rule met
O=C1NC(=S)S/C1=C\c1cn(-c2ccccc2)nc1-c1ccc([N+](=O)[O-])cc1 : rule not met

Now look at this one.
growth >= 50% for O=[N+]([O-])c1cccc(-c2nnc3c(/C=C/c4ccccc4O)nc4ccccc4n23)c1 ?
rule met

* * *

- System: U251 CNS
- runDescription: NCI-60 one-dose screen, 48 h
- settings: 10 µM
This is part of a sample that, as a whole, favours compounds with a hit. Of some 83,000 tested, about 20% had one in any assay. Calls of active or inactive are those of the source. The calls were made as follows: active = growth percent below 10; inactive = the rest.
Reply using exactly one outcome from active, inactive

Look over these answered cases.
O=C(Nc1ccc(OCc2ccc(F)cc2)cc1)Nc1ccc(Cl)c(C(F)(F)F)c1 : inactive
COc1ccc(Cc2nn(CC(=O)N/N=C/c3ccc(Br)cc3)c(=O)c3c(C)noc23)cc1 : active
O=C(CSc1nc2ccccc2c(=O)n1-c1ccc(Cl)cc1)Nc1ccc(-c2nc3ccccc3[nH]2)cc1 : active

Just curious, what result did COc1ccc(-n2c(SCC(=O)NNS(=O)(=O)c3ccccc3)nc3ccc(Cl)cc3c2=O)cc1 get here?
inactive

Hi, do you know how COc1cc2oc(-c3cccc(C(=O)Nc4ccc(Cl)cc4)c3)cc(=O)c2c(OCCN)c1OC came out in this test?
active

Check the results log: what was the call for CCOc1ccc(/C=N/NC(=O)Cn2nc(Cc3ccc(OC)cc3)c3onc(C)c3c2=O)cc1 ?
active

* * *

- Test system: A549/ATCC NSCLC
- runDescription: NCI-60 one-dose screen, 48 h (100 = growth as untreated, 0 = no growth, -100 = all killed)
- settings: 10 µM
About 83,000 compounds went through this panel and 20% of them were active in at least one assay; those are over-represented in the sample as a whole.
Below, each entry is listed with its recorded growth.
The reply should contain only the number, in %.

COc1ccc(Cc2nn(CC(=O)N/N=C/c3ccc([N+](=O)[O-])cc3)c(=O)c3c(C)noc23)cc1 : 22.5

For A549/ATCC NSCLC, provide growth of Cc1cc(N=C2NC(=O)/C(=C/c3cc(C(C)(C)C)c(O)c(C(C)(C)C)c3)S2)n[nH]1 please.
9.9

# returns recorded growth (system: A549/ATCC NSCLC) for COc1ccc(NCc2cn(-c3ccc(C(=O)O)cc3)nc2-c2ccc(F)cc2)cc1C(F)(F)F
35.8

Record lookup: for A549/ATCC NSCLC, what growth belongs to Cn1cc(-c2cc(N)n3nc(-c4cn(C)c5ccccc45)cc3n2)c2cc(F)ccc21 ?
-23.5

Provide value of growth for this record tested with A549/ATCC NSCLC: C#C[C@]1(O)CC[C@H]2[C@@H]3CC=C4c5sc(Nc6ccc(N(C)C)cc6)nc5CC[C@]4(C)[C@H]3CC[C@@]21C
20.5

Provide the documented growth with A549/ATCC NSCLC as the system for CCn1c(SCC(=O)Nc2ccc(-c3nc4ccccc4[nH]3)cc2)nc2ccccc2c1=O
-71.2

Write down the reported growth of COc1cc(-c2nc3ccc(C)cc3[nH]2)ccc1OCc1nnc(-c2ccccc2Br)o1 , test system: A549/ATCC NSCLC.
65.1

Observed growth on A549/ATCC NSCLC for COc1cccc(C(=O)CSc2nc(-c3ccc(OCc4ccccc4)c(OC)c3)c(C#N)c(=O)[nH]2)c1 , please.
98.5

* * *

- Test system: MDA-MB-468 breast
- runDescription: NCI-60 one-dose screen, 48 h
- settings: 10 µM unless noted
- Method: Growth inhibition of the MDA-MB-468 human Breast tumor cell line is measured as a screen for anti-cancer activity. Cells are grown in 96 well plates and exposed to the test compound for 48 hours. Compounds are tested at a single concentration, which is 10^-5 M for most compounds. The reported endpoint is percent growth (GI% or GIPRCNT), where numbers from 0 - 100% represent growth inhibition, and numbers from -100% - 0 represent cell death. […]
About 83,000 compounds went through this panel and 20% of them were active in at least one assay; those are over-represented in the sample as a whole. Activity calls are given as the source filed them. How the source made its calls: active means growth percent below 10; inactive means the rest.
The reply should be one of these categories: true (1) for active, false (0) for inactive

Answered examples (5):
COc1cc2c(-c3nc4cc(Cl)c(F)cc4s3)cc(=O)oc2c(C)c1OC : true (1)
O=S(=O)(O)c1ccc(O)c(C2CCCCC2)c1 : false (0)
CCCC(c1nnnn1C1CCCCC1)N1CCN(C(=O)c2ccco2)CC1 (stereo unspecified) : false (0)
COc1ccccc1NC(=O)COc1ccc(/C=C2/Oc3cc4occc4c(OC)c3C2=O)cc1OC : false (0)
O=C(c1ccc(-c2ccccc2)cc1)c1ccc([N+](=O)[O-])cc1 : false (0)

What was the test verdict on O=S(=O)(Nc1ccc2ccccc2c1)c1ccc(-c2cnc(C3CC3)o2)cc1 ?
true (1)

Recorded test call requested for CC(C)(C)C1CCC(=NO)CC1 (stereo unspecified)
false (0)

So what was the verdict on O=C(CCl)Nc1cc(O)c2c(c1)C(=O)c1cccc(O)c1C2=O in this test?
true (1)

Per the assay record, what outcome was assigned to CCCCCCCCCCCCN1CCCC(C)C1 (stereo unspecified) ?
false (0)

Recorded test outcome, item OC(c1cc2ccc(C(F)(F)F)cc2c2cc(C(F)(F)F)ccc12)C1CCCCN1 (stereo unspecified)
true (1)

Test call for this molecule, please: C/C(=C(/c1ccc(O)cc1)c1ccc(OCCN(C)C)cc1)c1ccc(Cl)cc1
false (0)

* * *

Reported growth by item:
- Test system: MDA-MB-468 breast
- runDescription: NCI-60 one-dose screen, 48 h (100 = growth as untreated, 0 = no growth, -100 = all killed)
- settings: 10 µM unless noted
Compounds without any hit were thinned out: in the full panel of roughly 83,000, 20% have a hit.
Lab book: enter the figure in %, no units written.

Example compounds with recorded growth:
N#C/C(=C\c1ccc2ccccc2c1)C(=O)Nc1sc2c(c1C#N)CCC2 : 96.8
CN(C)c1cccc2[nH]c(-c3[nH]ncc3Nc3ccnc(N)n3)nc12 : -67.5
CCOC(=O)C(=O)CC(=O)c1ccccc1 : 96.9
NC(N)=NS(=O)(=O)c1ccc(N=Nc2c(N)nn(-c3ccc([N+](=O)[O-])cc3[N+](=O)[O-])c2N)cc1 : 106

// next entry
Could you tell me which growth is on file for C[C@@H](CO)[C@@H]1CC[C@]2(C(=O)N3CCN(C)CC3)CC[C@]3(C)[C@H](CC[C@@H]4[C@@]5(C)CC[C@H](O)C(C)(C)[C@@H]5CC[C@]43C)[C@@H]12 ?
61

* * *

- Tested on: MDA-MB-468 breast
- runDescription: NCI-60 one-dose screen, 48 h (100 = growth as untreated, 0 = no growth, -100 = all killed)
- settings: 10 µM unless noted
The panel holds about 83,000 compounds, 20% with a hit somewhere; the sample as a whole holds those more often.
assayReadout: growth (%)
Your answer is read as %, so omit the unit and give the number.

Oc1ccc(Cc2ccc(O)c3ncccc23)c2cccnc12 : -16
Nc1c(C(=O)Nc2ccc(Cl)cc2)sc2nc(-c3cnccn3)cc(-c3cccs3)c12 : 82

Give the measured growth of CC1(C)CC[C@]2(CO)CC[C@]3(C)[C@](O)([C@H](O)C[C@@H]4[C@@]5(C)CCCNC(C)(C)[C@@H]5CC[C@]43C)[C@@H]2C1 .
81.3

Would you kindly share the measured growth for COc1cc(CNC(=O)Cc2ccccc2)ccc1OCc1cn(-c2ccc(F)cc2)nn1 ?
99.8

Look up growth for this compound: Cc1ccc2c(-c3nnc(N)s3)cc(=O)oc2c1C
95.6

Need growth of CCOC(=O)CSc1nc2sc3c(c2c(=O)n1-c1ccc([N+](=O)[O-])cc1)CCCCC3 , thanks.
56.6

Which growth reading was recorded for the compound C/C(=N\NC(=O)/C=C/CC(=O)O)c1nnn(-c2ccc([N+](=O)[O-])cc2)c1C ?
99.8

Looking for the measured growth of OC(c1cc(-c2cccc(Cl)c2)nc2ccccc12)C1CCCCN1 (stereo not given) , can you help?
-77.5

Which growth reading was recorded for the compound CCc1ccccc1C(=O)N(CC)CC ?
116

What measured growth goes with CC/C(=C(/c1ccc(Cl)cc1)c1ccc(OCCCN(C)C)cc1)c1ccc(OC)cc1 ?
51.7
